Cited source: patent US10106526B2

- system: CDK7/Cyclin H/MAT1 trimeric complex (Homo sapiens, UniProt P50613)
- Sequence (P50613 whole entry): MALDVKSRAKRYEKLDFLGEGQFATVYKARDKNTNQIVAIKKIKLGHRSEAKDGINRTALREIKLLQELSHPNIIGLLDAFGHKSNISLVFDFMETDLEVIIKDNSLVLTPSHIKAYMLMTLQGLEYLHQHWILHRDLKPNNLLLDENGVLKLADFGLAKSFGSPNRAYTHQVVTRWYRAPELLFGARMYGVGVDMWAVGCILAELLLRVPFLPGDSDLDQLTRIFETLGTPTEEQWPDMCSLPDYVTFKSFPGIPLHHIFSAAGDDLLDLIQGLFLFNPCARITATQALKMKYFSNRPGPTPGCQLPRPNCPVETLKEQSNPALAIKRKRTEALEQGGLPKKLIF
- Sequence (P51946 whole entry partner): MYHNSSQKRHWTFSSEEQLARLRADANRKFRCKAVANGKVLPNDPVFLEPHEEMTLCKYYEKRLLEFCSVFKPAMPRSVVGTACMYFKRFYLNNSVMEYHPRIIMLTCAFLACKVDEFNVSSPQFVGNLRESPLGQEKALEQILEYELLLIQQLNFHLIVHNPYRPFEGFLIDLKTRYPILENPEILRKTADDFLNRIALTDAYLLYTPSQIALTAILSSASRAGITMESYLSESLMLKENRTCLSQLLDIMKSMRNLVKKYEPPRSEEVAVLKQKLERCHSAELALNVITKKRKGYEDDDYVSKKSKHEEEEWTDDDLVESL
- Sequence (P51948 whole entry partner): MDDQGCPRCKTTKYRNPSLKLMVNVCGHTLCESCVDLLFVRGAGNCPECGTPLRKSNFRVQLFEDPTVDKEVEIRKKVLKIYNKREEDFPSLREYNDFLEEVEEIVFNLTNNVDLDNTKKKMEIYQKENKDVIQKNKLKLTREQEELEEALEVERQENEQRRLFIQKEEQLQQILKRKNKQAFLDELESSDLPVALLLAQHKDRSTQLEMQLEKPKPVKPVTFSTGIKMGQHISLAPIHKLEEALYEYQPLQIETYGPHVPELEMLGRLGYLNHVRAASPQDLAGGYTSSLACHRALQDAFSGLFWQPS
- method.description: CDK7 kinase assay, Caliper/LabChip EZ Reader (Biortus Biosciences)
- condition.details: CDK7/Cyclin H/MAT1 10 nM, ATP 2 mM, FAM-CDK7tide 2 μM, 30 min incubation, read-out: CDK7 Inhibition (IC50)
outcome.measure: IC50

Record excerpt, results attached:
[
  {
    "compound": "C=CC(=O)N1CC(N(C)[C@H]2CCC[C@@H](Nc3ncc(Cl)c(-c4c[nH]c5ccccc45)n3)C2)C1 [Compound 224]",
    "IC50": "< 100 nM"
  },
  {
    "compound": "C=CC(=O)Nc1cnc(C(=O)N[C@H]2CCC[C@@H](Nc3ncc(Cl)c(-c4c[nH]c5ccccc45)n3)C2)nc1 [Compound 112]",
    "IC50": "100 to 1000 nM"
  },
  {
    "compound": "C=CC(=O)N1CCN([C@H]2CCC[C@@H](Nc3ncc(Cl)c(-c4c[nH]c5ccccc45)n3)C2)CC1 [Compound 168]",
    "IC50": "< 100 nM"
  },
  {
    "compound": "C=CC(=O)N1CCCC(C(=O)N[C@H]2CC[C@H](Nc3ncc(Cl)c(-c4c[nH]c5ccccc45)n3)CC2)C1 (stereo partly shown) [Compound 158]",
    "IC50": "< 100 nM"
  },
  {
    "compound": "CCc1cnc(N[C@@H]2CCC[C@](C)(NCc3ccc(NC(=O)/C=C/CN(C)C)cn3)C2)nc1-c1c[nH]c2ccccc12 [Compound 411]",
    "IC50": "< 100 nM"
  },
  {
    "compound": "C=CC(=O)Nc1ccc(CN[C@H]2CCC[C@@H](Nc3ncc(Cl)c(-c4c[nH]c5ccccc45)n3)C2)nc1 [Compound 258]",
    "IC50": "< 100 nM"
  }
]

INPUT: Consider the compound CN(C)C/C=C/C(=O)N1CCC(O)(CN(C)[C@H]2CCC[C@@H](Nc3ncc(Cl)c(-c4c[nH]c5ccccc45)n3)C2)CC1 [Compound 228] and give its measured IC50.
OUTPUT: < 100 nM

INPUT: Which IC50 value is on record for C=CC(=O)NC1CC2CCC(C1)N2C1CCCC(Nc2ncc(Cl)c(-c3c[nH]c4ccccc34)n2)C1 (mixture of isomers) [Compound 259] ?
OUTPUT: 100 to 1000 nM

INPUT: Look at this compound and give its reported IC50. CN(C)C/C=C/C(=O)Nc1ccc(C(=O)N[C@H]2CCC[C@@H](Nc3ncc(C(F)(F)F)c(-c4c[nH]c5ccccc45)n3)C2)nc1 [Compound 248]
OUTPUT: < 100 nM

INPUT: Need IC50 of C=CC(=O)N1CCN(C2CCCC(Nc3ncc(Cl)c(-c4c[nH]c5ccccc45)n3)C2)CC1C (stereo not shown) [Compound 232] , thanks.
OUTPUT: < 100 nM

INPUT: Which measured IC50 value corresponds to C=C(F)C(=O)Nc1ccc(C(=O)N[C@H]2CCC[C@@H](Nc3ncc(Cl)c(-c4c[nH]c5ccccc45)n3)C2)nc1 [compound 402] ?
OUTPUT: 100 to 1000 nM

INPUT: Quick check: IC50 of CN(C)C/C=C/C(=O)Nc1ccc(C(=O)N[C@@]2(C)CCC[C@@H](Nc3ncc(C(F)(F)F)c(-c4c[nH]c5ccccc45)n3)C2)nc1 [Compound 399] ?
OUTPUT: < 100 nM

INPUT: What does the record list as IC50 for CN(C)C/C=C/C(=O)N1CCN([C@H]2CCC[C@@H](Nc3ncc(Cl)c(C4C(=O)Nc5ccccc54)n3)C2)CC1 (stereo partly shown) [Compound 293] ?
OUTPUT: 100 to 1000 nM

###

Catalogue of compounds with associated pIC50
- System: Jurkat cells
- method.description: Inhibition of proliferation of Jurkat cells (CellTiter-Glo, 72 hour)
- Assay type: cell-based, human
- condition.details: Homo sapiens, 10 μM to 316 pM
pIC50: −log10 of the molar value.

Past entries and their recorded results:
[
  {
    "compound": "CN(C)C/C=C/C(=O)N1CCC[C@@H](C(=O)Nc2cccc(Nc3ncc(Cl)c(-c4c[nH]c5ccccc45)n3)c2)C1 [Compound 103]",
    "system": "Jurkat cells",
    "pIC50": "5.30 to 6.30"
  },
  {
    "compound": "C=CC(=O)N1CCC(CN2CCC(Nc3ncc(Cl)c(-c4c[nH]c5ccccc45)n3)CC2)CC1 [Compound 141]",
    "system": "Jurkat cells",
    "pIC50": "> 6.30"
  },
  {
    "compound": "C=CC(=O)N1CCC[C@H]1C(=O)N[C@H]1CCC[C@@H](Nc2ncc(Cl)c(-c3c[nH]c4ccccc34)n2)C1 [Compound 115]",
    "system": "Jurkat cells",
    "pIC50": "> 6.30"
  },
  {
    "compound": "C=CC(=O)N1CCN(CC2(O)CCC[C@@H](Nc3ncc(Cl)c(-c4c[nH]c5ccccc45)n3)C2)CC1 (single isomer, unassigned) [Compound 187]",
    "system": "Jurkat cells",
    "pIC50": "> 6.30"
  },
  {
    "compound": "C=CC(=O)NCCC(=O)N[C@H]1CCC[C@@H](Nc2ncc(Cl)c(-c3c[nH]c4ccccc34)n2)C1 [Compound 172]",
    "system": "Jurkat cells",
    "pIC50": "> 6.30"
  },
  {
    "compound": "Nc1ccc(C(=O)Nc2cccc(Nc3ncc(Cl)c(-c4c[nH]c5ccccc45)n3)c2)cn1 [Compound 1024]",
    "system": "Jurkat cells",
    "pIC50": "5.30 to 6.30"
  },
  {
    "compound": "CN(C)C/C=C/C(=O)Nc1cnc(C(=O)N[C@H]2CCC[C@@H](Nc3ncc(Cl)c(-c4c[nH]c5ccccc45)n3)C2)nc1 [Compound 113]",
    "system": "Jurkat cells",
    "pIC50": "> 6.30"
  },
  {
    "compound": "O=C(N[C@H]1CCC[C@@H](Nc2ncc(Cl)c(-c3c[nH]c4ccccc34)n2)C1)C1CCN(C(=O)/C=C/CN2CCOCC2)CC1 [Compound 202-1]",
    "system": "Jurkat cells",
    "pIC50": "5.30 to 6.30"
  },
  {
    "compound": "C=CC(=O)N1CCC[C@@H]1C(=O)N[C@H]1CCC[C@@H](Nc2ncc(Cl)c(-c3c[nH]c4ccccc34)n2)C1 [Compound 173]",
    "system": "Jurkat cells",
    "pIC50": "5.30 to 6.30"
  },
  {
    "compound": "C=CC(=O)Nc1cnc(C(=O)N[C@H]2CCC[C@@H](Nc3ncc(Cl)c(-c4c[nH]c5ccccc45)n3)C2)nc1 [Compound 112]",
    "system": "Jurkat cells",
    "pIC50": "< 5.30"
  }
]

INPUT: Would you kindly share the measured pIC50 for C=CC(=O)N(C)[C@H]1CCC[C@@H](Nc2ncc(Cl)c(-c3c[nH]c4ccccc34)n2)C1 [Compound 171] ?
OUTPUT: > 6.30

###

- Tested on: A673 cells
- method.description: Inhibition of proliferation of A673 cells (CyQUANT, 72 hour)
- Type: cell-based, human
- condition.details: 72 hour proliferation
- Procedure: A673 cells are a cell line derived from human muscle Ewing's sarcoma. Representative compounds of the invention were tested at different concentrations (from 4 μM to 126.4 pM; 0.5 log serial dilutions) for their ability to inhibit the proliferation of A673 cells. Known CDK inhibitors flavopiridol and triptolide were used as positive controls. Cells were grown in Dulbecco's Modified Eagle's Medium, +10% FBS+1 mM Sodium Pyruvate. […]
IC50 reference

These recorded examples may help you get a feel for the data.
[
  {
    "compound": "C=CC(=O)N1CCN(C2CCCC(Nc3ncc(Cl)c(-c4c[nH]c5ccccc45)n3)C2)CC1C (stereo not shown) [Compound 232]",
    "val": "< 500 nM"
  },
  {
    "compound": "CN(C)C/C=C/C(=O)N1CC(F)(F)C[C@H]1C(=O)N[C@H]1CCC[C@@H](Nc2ncc(C#N)c(-c3c[nH]c4ccccc34)n2)C1 [compound 396]",
    "val": "< 500 nM"
  }
]

INPUT: Form field: reported IC50 of CC1CN(C2CCCC(Nc3ncc(Cl)c(-c4c[nH]c5ccccc45)n3)C2)CCN1C(=O)C=CCN(C)C (stereo not shown) [Compound 230]
OUTPUT: < 500 nM

INPUT: Item C=CC(=O)Nc1cnc(CN[C@H]2CCC[C@@H](Nc3ncc(Cl)c(-c4n[nH]c5ccccc45)n3)C2)nc1 [compound 405] has what recorded IC50?
OUTPUT: < 500 nM

INPUT: Given the entry C=CC(=O)N1CC(F)(F)C[C@H]1C(=O)N[C@H]1CCC[C@@H](Nc2ncc(Cl)c(-c3n[nH]c4ccccc34)n2)C1 [compound 391] , report its measured IC50.
OUTPUT: < 500 nM

INPUT: Consider the compound C=CC(=O)N1CCN(CC2(O)CCC[C@@H](Nc3ncc(Cl)c(-c4c[nH]c5ccccc45)n3)C2)CC1 (single isomer, unassigned) [Compound 188] and give its measured IC50.
OUTPUT: < 500 nM

INPUT: Data request, read-out IC50, for C=CC(=O)N1CCC(CNC2(C)CCCC(Nc3ncc(Cl)c(-c4c[nH]c5ccccc45)n3)C2)CC1 (stereo not shown) [Compound 268]
OUTPUT: < 500 nM
